EC50 by entry:
EXPERIMENTAL TARGET: T1, mouse VTCN1 expressed on 293 cells (mouse, UniProt Q7TSP5 25-257)
T1 construct: whole, on cells
T1 sequence (looked up): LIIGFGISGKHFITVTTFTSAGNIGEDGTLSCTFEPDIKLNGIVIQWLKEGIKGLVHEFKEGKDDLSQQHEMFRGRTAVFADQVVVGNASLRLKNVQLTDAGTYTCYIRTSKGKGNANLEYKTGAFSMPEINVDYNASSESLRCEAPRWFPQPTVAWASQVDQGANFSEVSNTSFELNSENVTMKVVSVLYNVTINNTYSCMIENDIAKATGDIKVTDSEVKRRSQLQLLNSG
ASSAY SUMMARY: flow cytometry, antibody titration on 293-muVTCN1 cells

Reference set, count: 2
| BINDER | EC50 |
| --- | --- |
| 14D6_60B5 (antibody, V domains shown, Fully human antibody) VH: QVQLVHSGAEVKRPGSSVKVSCKASGGTFSSYAISWVRQAPGQGLEWMGGIIPIFGIANYAQKFQGRVTIIADKSTRTAYMELSSLRSEDTAVYYCARGGPYFDYWGQGILVTVSS VL: EIVMTQSPATLSVSPGERATLSCRASQSVSSNLAWYQQKPGQAPRLLIYGASTRATGIPARFSGSGSGTEFTLTISSLQSEDFAVYYCQQYNKWPFTFGPGTKVDIK | 11.4 nM |
| 13H9_44D2 (antibody, V domains shown, Fully human antibody) VH: QVQLQESGPGLVKPSETLSLTCTVSGGSISSYYWSWIRQPPGKGLEWIGYIYYSGSTNNNPSLKSRVTISVDTSKNQFSLKLISVTAADTAVYYCARVYNNYDWGFDYWGQGTLVTVSS VL: EIVMTQSPATLSVSPGERATLSCRASQSVSSNLAWYQQKPGQAPRLLIYGASTRATGIPARFSGSGSGTEFTLTIRSLQSEDFAVYYCQQYHNWPLTFGGGTKLEIK | 1.8 nM |

Form field: reported EC50 of 12B5_44B1 (antibody, V domains shown, Fully human antibody) VH: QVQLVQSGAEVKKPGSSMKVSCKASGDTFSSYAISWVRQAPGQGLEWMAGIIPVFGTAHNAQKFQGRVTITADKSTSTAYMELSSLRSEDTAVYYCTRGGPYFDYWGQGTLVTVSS VL: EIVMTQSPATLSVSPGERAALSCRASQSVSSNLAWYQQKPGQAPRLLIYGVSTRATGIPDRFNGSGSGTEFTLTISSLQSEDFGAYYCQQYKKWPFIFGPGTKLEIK
28.5 nM
